B1: WDFY1 (parent)
chain: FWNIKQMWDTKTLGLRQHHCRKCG

Variants of: B1
Assay: protein stability index of a GFP-peptide fusion (GPS, HEK-293T) (PSI 1-6); higher = more stable;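 also: lentivirally expressed fusions sorted by FACS into six bins by GFP to DsRed ratio, PSI derived from sequencing read proportions per bin multiplied by bin number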
Details: c terminus: a fixed tail appended
observation_type: protein stability index

K5Q	2.03
L13T	1.95
K11H	1.8
M7D	2.54
Q17T	2.12
K11C	1.87

**Query** Can you look up the measured protein stability index of `Q6T` for me?
**Result** 2.04

**Query** // protein stability index lookup, key: `R16T`
**Result** 2.55

**Query** Give its protein stability index value. Item: `G14I`
**Result** 1.87

**Query** Tell me the measured protein stability index of `Q6L` , please.
**Result** 1.47

**Query** Fill in: protein stability index of `R16G` is ___
**Result** 1.64

**Query** // lookup protein stability index for `G14H`
**Result** 1.85

**Query** Please report the recorded protein stability index for `K5P` .
**Result** 2.17

**Query** I am curious: what protein stability index value has been reported for `D9L` ?
**Result** 1.6

**Query** Could you tell me which protein stability index is on file for `C23T` ?
**Result** 2.34

**Query** GET /values?readout=protein stability index&item= `H18Q`
**Result** 1.82

All values here come from the supplement of paper PMC10567573.
